# targetOrSystem: T1, PSMA Fab (006 PSMA Fab) (Fab biotinylated for capture on neutravidin plates (site not given))
# T1 construct: also called Anti-PSMA Fab; anti-PSMA Fab
# assayComment: clonal phage ELISA; biotinylated PSMA Fab on neutravidin plate, wells pre-incubated with PSMA antigen as competitor; anti-M13-HRP detection
Where no end group is shown, it is not given here.
Labels assigned by Phage binding ELISA signal, Anti-PSMA Fab in presence of PSMA antigen range: bin A = under 0.07, bin B = from 0.07 up to 0.09, bin C = 0.09 and over

{"columns": ["binder", "classLabel"],
 "data": [
  ["VVAQCVPRWMCDGF (also called Peptide-180 library clone; not shown: pIII filament protein of the bacteriophage) [Phage-3458]", "bin C"],
  ["VEKMCRPLWMCHGF (also called Peptide-180 library clone; not shown: pIII filament protein of the bacteriophage) [Phage-3457]", "bin C"],
  ["TELLCTPRWMCEGF (also called Peptide-180 library clone; not shown: pIII filament protein of the bacteriophage) [Phage-3461]", "bin C"],
  ["HIMQCKPAWMCSGL (also called Peptide-180 library clone; not shown: pIII filament protein of the bacteriophage) [Phage-3456]", "bin A"],
  ["IEALCVPDWMCRGF (also called Peptide-180 library clone; not shown: pIII filament protein of the bacteriophage) [Phage-3455]", "bin A"],
  ["PLKLCIPEWMCVEL (also called Peptide-180 library clone; not shown: pIII filament protein of the bacteriophage) [Phage-3450]", "bin B"],
  ["EDVRCVPAWMCNGF (cysteine pairing not given here; also: fused to pIII of bacteriophage, also called Peptide-180 library clone; not shown: pIII filament protein of the bacteriophage) [Phage-3449]", "bin B"],
  ["NAIMCRPAWMCSGF (also called Peptide-180 library clone; not shown: pIII filament protein of the bacteriophage) [Phage-3460]", "bin B"],
  ["VTMRCTPDWMCVGF (also called Peptide-180 library clone; not shown: pIII filament protein of the bacteriophage) [Phage-3454]", "bin B"],
  ["VLRSCVPEWMCSGF (also called Peptide-180 library clone; not shown: pIII filament protein of the bacteriophage) [Phage-3462]", "bin B"],
  ["SPPLCVPVWMCHGF (also called Peptide-180 library clone; not shown: pIII filament protein of the bacteriophage) [Phage-3459]", "bin C"]
]}
